Consider the following compounds; for each one, report its solvation free energy, 298 K.
assay: solvent given as SMILES; settings: in O

Batch request: solvation free energy, 298 K per item, same order as input.
1. COC(=O)c1ccc([N+](=O)[O-])cc1
2. CC(=O)NS(=O)(=O)c1ccc(N)cc1
3. C=C(C)C1CCC2(C)CCC=C(C)C2C1 (centres undefined)

a:
1: -6.76 kcal/mol; 2: -18.4 kcal/mol; 3: -0.16 kcal/mol

State recorded solvation free energy, 298 K for all listed compounds.
1. S
2. COC
3. C=C1C2CCC(C2)C1(C)C (centres undefined)
4. CCCCOC(C)=O
5. CC(C)[N+](=O)[O-]

a:
1. -0.65 kcal/mol
2. -1.91 kcal/mol
3. 0.61 kcal/mol
4. -2.65 kcal/mol
5. -3.13 kcal/mol

Okay, here is my list. What is solvation free energy, 298 K for each of these?
1. CNC=O
2. CC=O
3. ClC1=C(Cl)C2(Cl)C3C(Cl)CC(Cl)C3C1(Cl)C2(Cl)Cl (centres undefined)

a:
["-8.87 kcal/mol", "-3.44 kcal/mol", "-3.44 kcal/mol"]

Here are 8 compounds. What values of solvation free energy, 298 K were reported for them?
1. O=NN1CCCCC1
2. Clc1ccccc1Cl
3. O=Cc1cccnc1
4. CCCCOCCOC(=O)c1ccccc1C(=O)OCCOCCCC
5. C1=CCCCCC1
6. CCCCCCN
7. CCOP(=S)(OCC)SCSP(=S)(OCC)OCC
8. CC(C)CC(C)(C)C

a:
1: -6.34 kcal/mol; 2: -1.4 kcal/mol; 3: -7.1 kcal/mol; 4: -12.8 kcal/mol; 5: 0.7 kcal/mol; 6: -4 kcal/mol; 7: -6.1 kcal/mol; 8: 2.92 kcal/mol

Return reported solvation free energy, 298 K values for all items listed beneath this line.
1. C=C(C)C1CC=C(C)C(O)C1 (centres undefined)
2. Oc1ccc(I)cc1
3. C=C(C)C1CCC2(CO)CCC3(C)C(CCC4C5(C)CCC(O)C(C)(C)C5CCC43C)C12 (centres undefined)
4. Cc1ccc(C)cc1
5. COC(=O)c1ccc(OC)cc1
6. CCCCC(C)O (centres undefined)
7. Cc1cnccn1

a:
1: -4.44 kcal/mol; 2: -7.61 kcal/mol; 3: -14.2 kcal/mol; 4: -0.75 kcal/mol; 5: -5.33 kcal/mol; 6: -4.28 kcal/mol; 7: -5.51 kcal/mol

List the reported solvation free energy, 298 K of each compound below.
1. CC(C)Nc1nc(Cl)nc(NC(C)C)n1
2. CCC=O
3. CCF
4. CCN(CC)N=O
5. CCCCCCCCCCCCCCCCCCCCCCCCCC
6. OCC(F)(F)F
7. COc1ccc(C(=O)N(O)c2cccc(Cl)c2)cc1

a:
["-9.55 kcal/mol", "-3.35 kcal/mol", "0.41 kcal/mol", "-5.46 kcal/mol", "5.59 kcal/mol", "-4.31 kcal/mol", "-12.8 kcal/mol"]

Batch of 2 compounds: report solvation free energy, 298 K for each.
1. Cc1ccccc1
2. CC1=CCC2(C(C)C)CC12 (centres undefined)

a:
-0.85 kcal/mol
0.5 kcal/mol

Batch request: solvation free energy, 298 K per item, same order as input.
1. Clc1cc(Cl)c(Cl)c(Cl)c1
2. FC(F)=CCl
3. CCN(CC)c1c([N+](=O)[O-])cc(C(F)(F)F)c(N)c1[N+](=O)[O-]
4. O=C(c1ccccc1)N(O)c1cccc(Cl)c1
5. II

a:
1: -1.62 kcal/mol; 2: 0.52 kcal/mol; 3: -5.66 kcal/mol; 4: -10.9 kcal/mol; 5: -2.54 kcal/mol
